Test system: MS2 coat protein
Test: apparent KD of MS2 coat protein; designed switch direction (-1 OFF switch, 1 ON switch): 1; higher = weaker reporter binding
Details: input ligand: none
endpoint label: apparent KD of MS2 coat protein (nM)

{"item sequence": "AUACAAAACACAAAUACAAACAAAUACAAACAUGAGGAUCACCCAUGUGCAAUACGACUCUUUAUGGCUGGUCUUCA [Onvete] (Eterna round: R96, puzzle: Sensor for hsa-mir-208a)", "result units": "nM", "result": 107}
{"item sequence": "GGUGCCAAAUAAGCCUACAUGAGGAUCACCCAUGUAUGUAGGCAGGAUAUCGUUUGCAAAGCAAACGAGAAGGGCCUAGGCACC [Mat - Same State NG 3 - JL Mod - D62] (Eterna round: R96, puzzle: Same State NG 3)", "result units": "nM", "result": 35.2}
{"item sequence": "GAGGGACAGACCAACAUGAGGAUCACCCAUGUCCUCGCAGGUCAGGAUAUUAUGAGGAUCACCCGUGAGAAGGGACGGUGAACC (Eterna round: R96, puzzle: Same State NG 3)", "result units": "nM", "result": 488}

====

Reported apparent KD of K4 kissing-loop reporter is given for each of the following sequences.
Test system: K4 kissing-loop RNA reporter;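 further: bound reporter read as fluorescence of individual clusters on recovered sequencing chips by microscopy, with normalized cluster intensities fitted with a binding model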
Experiment: apparent KD of K4 kissing-loop reporter; higher = weaker reporter binding
Details: Eterna round: R107; input ligand: none

{"item sequence": "ACGAAGGAUGGAAGGAGCGCUCGUCAGUCCUGCGAGUGAUGUUCGUGGGUAAAUAUUCGCGAGCAGGUAGGUCGCCAUCUUGAAC [Veticeen]", "measured target": "K4 kissing-loop RNA reporter", "apparent KD of K4 kissing-loop reporter": "137 nM"}
{"item sequence": "AUGCGCGUGCGAUGUAAAUCGCACGCGCAUCGAGGACCGGUACGGCCGCCACUCGCUCGCGCCGAGUGAUGUUCGGCCGGCGAAC [#2 Same State - Tryptophan A Attempt #5 (HarryS)]", "measured target": "K4 kissing-loop RNA reporter", "apparent KD of K4 kissing-loop reporter": "527 nM"}
{"item sequence": "AGAGUUAUGCGAGGAUAUGCGGUUAGUACUCAAAGAGUACUAACAGCAGAGUGAUGUUCUGUGAAAGCAGAAGGUGCAUAACUCA [Omei KL FMN B SS B v10]", "measured target": "K4 kissing-loop RNA reporter", "apparent KD of K4 kissing-loop reporter": "1040 nM"}
{"item sequence": "CGCGCGCGUUGAGAGGUGCGCGCGAAUGAUACCAGUAUAUAAGAAUACCCUUGGCAGCAUAAGAAAGAUAUAGUGAUGUUGUAUA [SSTheophA.F]", "measured target": "K4 kissing-loop RNA reporter", "apparent KD of K4 kissing-loop reporter": "250 nM"}
{"item sequence": "GGGCCUCUGGCUGAUACCAGUGAUAAAGGGUAAGAGACAGGGAGUGAUGUUCCCUUUAGCCACCCUUGGCAGCAGUUUAAGUUUG [Exclusion Theophylline B GF 18]", "measured target": "K4 kissing-loop RNA reporter", "apparent KD of K4 kissing-loop reporter": "85.5 nM"}
{"item sequence": "AUCUAGAUGCGAAGGAGCGCCUCAACGCGCUAUCUAUGGAGUGAUGUUCCAACGUAUGAGAGGCAGGUAGGUCGCGCAUCUAGAA [Arg B Ex t1]", "measured target": "K4 kissing-loop RNA reporter", "apparent KD of K4 kissing-loop reporter": "132 nM"}

====

apparent KD of MS2 coat protein by entry:
System: MS2 coat protein
Assay: apparent KD of MS2 coat protein; designed switch direction (-1 OFF switch, 1 ON switch): -1; higher = weaker reporter binding
Settings: input ligand: none

{"item sequence": "GGGUAGUGAGGAUAUCGUUGUUAGGAGGAGUAGGUAGGAGGCGAGAAGGCACAUGAGGAUCACCCAUGUAUGAA [JR_Exclu4_Sub066] (Eterna round: R96, puzzle: Exclusion 4)", "measured target": "MS2 coat protein", "apparent KD of MS2 coat protein, nM": 32}
{"item sequence": "UAAUAACAUGUAGGAUAUGCGUGGCGAAGCUAUGCAGAAGGACAUGAGGAUCACCCAUGUUAAAGCGUCUGCGUACAGAUGCGA [Mat - Exclusion NG 1 - Mod of JL - D97] (Eterna round: R96, puzzle: Exclusion NG 1)", "measured target": "MS2 coat protein", "apparent KD of MS2 coat protein, nM": 31.1}

====

Test system: MS2 coat protein
Assay: apparent KD of MS2 coat protein; designed switch direction (-1 OFF switch, 1 ON switch): -1; higher = weaker reporter binding
Settings: Eterna round: R95; input ligand: FMN 200 uM
Binned apparent KD of MS2 coat protein; ranges: Low: < 30 nM; Medium: ≥ 30 nM and < 50 nM; High: ≥ 50 nM

{"item sequence": "GAGAAGGUAGGAUAUACGAAGAAAGAGGGUAGGAAUAAGACACAUGAGGAUCACCCAUGUAGAAGGACCAAGAG [Mat - Exclusion 2 - Mod of my Tesla design - D49] (puzzle: Exclusion 2)", "classification": "Medium"}
{"item sequence": "ACGUAACGAGCUUGAUCCAACAUGAGGAUCACCCAUGUGCUCGUCUUAUAACGUACUGUCACGUUAGUGAUAGUGCG [Sensor v3, turn-off variant 1 (MOD of Eli's v1-13 v.5)] (puzzle: Sensor v3, turn-off variant 1)", "classification": "High"}
{"item sequence": "AUUGAUAUUGAGGAUAUGCUUUUAUUUGAACAAGCAGAAGGCGAUACAUGAGGAUCACCCAUGUUUAUGGAAGU [JR_E6_Sub087] (puzzle: Exclusion 6)", "classification": "High"}
{"item sequence": "CAGUACUACAAGCUUCGGGACAUGAGGAUCACCCAUGUUCGUCUUAUUGAUCUAGGUACGCUGACGUACCUAGAUCU [JL-sv1-2.13 Brourd mod] (puzzle: Sensor v3, turn-off variant 1)", "classification": "Low"}
{"item sequence": "ACAAGCUUAUUGCUCGGGUACAUGAGGAUCACCCAUGUUUGUGAUUAUAGAGAUUGUGUUGACGUGCGCUGCAGGUU [JR_SV3TOV1_Sub078] (puzzle: Sensor v3, turn-off variant 1)", "classification": "High"}
{"item sequence": "GAUUAUGCGAGCUUUAGGGACAUGAGGAUCACCCAUGUUCGUCUUAUUGAUCUAGGUACGCUGACAUACCUAAAUCU [Mod of one of jandersonlee's solutions 2] (puzzle: Sensor v3, turn-off variant 1)", "classification": "Low"}
{"item sequence": "UUGGAGAUAGGAUAUACGAGGAGAGUUGAGGGAACGCGAUGACAUGAGGAUCACCCAUGUAGAAGGAUCAGGAG [JR_Exclu2_Sub070] (puzzle: Exclusion 2)", "classification": "Low"}
{"item sequence": "UUUAAUUUUUUUUUUUUACAAGCUUUUUGCUCGUCUUAUACAUGAGGAUCACCCAUGUGGGUGGAGAGUAAAUUAUC [JMF 60] (puzzle: Sensor v3, turn-off variant 2)", "classification": "Medium"}
{"item sequence": "AGUUCUAACACGAAAGUGUUAGUACAAUAAGCUUGUGAAACAUGAGGAUCACCCAUGUCCUCAUAAGCUCGUCUUAU [salish99_TOv2_r3_013] (puzzle: Sensor v3, turn-off variant 2)", "classification": "Low"}

====

Tested on: MS2 coat protein
Assay: apparent KD of MS2 coat protein; designed switch direction (-1 OFF switch, 1 ON switch): -1; higher = weaker reporter binding
Settings: input ligand: FMN 200 uM
endpoint label: apparent KD of MS2 coat protein

{"item sequence": "UCGGCGCGAGGAUAUGCGGCUGCUGCUUCGGGCCGUGGCGUACAUGAGGAUCACCCAUGUAGAAGGCGCGCCGC [Apr-15 SS2-40] (Eterna round: R96, puzzle: Exclusion 2)", "result": "0.0129 µM"}
{"item sequence": "GUGCCGCGAGGAUAUACAGACGGGUCCAGGGCGUGUCUCGGACUUGAGGAUCACCCAAGUAGAAGGCGUCUCAG [salish99_ex2_r4_615] (Eterna round: R97, puzzle: Exclusion 2)", "result": "0.0776 µM"}
{"item sequence": "GGACCGCGGCAAGGAUAUCUUUGUCAACAUAAAACAUGAGGAUCACCCAUGUGCAUCUUCGUGUGAGAGAAGGUGCGGCAGUCC [Isisgeri] (Eterna round: R96, puzzle: Exclusion NG 2)", "result": "0.222 µM"}

====

Test system: MS2 coat protein
Assay: apparent KD of MS2 coat protein; higher = weaker reporter binding
Settings: Eterna round: R107; input ligand: theophylline 20 uM

{"item sequence": "GGAUAGGACAGAAGGAGCGACAUGAGGAUCACCCAUGUCUACUACGUCGAAAGACGCUCAUGUCAGGUAGGUCGCUGUCCUAUCG [#28 Exclusion - Arginine B]", "apparent KD of MS2 coat protein (nM)": 263}
{"item sequence": "AGCCAUGGAAACAUGGCGGCGGCAUGAGCGCGAGGACCGGUACGGCCGCCACUCGGGCGACAUGAGGAUCACCCAUGUUCCUCAU [ETA NP+V+V2 #22 Same Structure]", "apparent KD of MS2 coat protein (nM)": 312}
{"item sequence": "AUUCAUGGAAACAUGACAUAGGGAUCUAGCCGAGGACCGGUACGGCCGCCACUCGCUUGGAGGCACAUGAGGAUCACCCAUGUUA [SS Tryp A #6]", "apparent KD of MS2 coat protein (nM)": 140}
{"item sequence": "AACAUACAGUUUUAGGUGGAUAUAAGGCGGCGAGGACCGGUACGGCCGCCACUCGCGUACAUGAGGAUCACCCAUGUCUGAAGCU [Same State - Tryptophan A (Freestyle 7)]", "apparent KD of MS2 coat protein (nM)": 59.2}
{"item sequence": "CUCCCUUCGGCGGCCGCCACUAACAGUUUAAUGGACUUUCGGGUCCACAUGAGGAUCACCCAUGUUAGGACCGGGCCCUUGCUCU [theeternabot_exclusion_MS2_Trp_B_39]", "apparent KD of MS2 coat protein (nM)": 17.5}
